Each entry below lists one item and its recorded protein stability index value.
B1: FCHO1 (parent)
chain: FSDPSQSDPETKDFWLNMAALTEA

Variants of: B1
ASSAY EXPLANATION: protein stability index of a GFP-peptide fusion (GPS, HEK-293T) (PSI 1-6); higher = more stable;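 further: lentivirally expressed fusions sorted by FACS into six bins by GFP to DsRed ratio, PSI derived from sequencing read proportions per bin multiplied by bin number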
MEASUREMENT PARAMETERS: c terminus: a fixed tail appended
ASSAY ENDPOINT: protein stability index

INSERT INTO assay_data (residue_change, assay_endpoint, readout_value) VALUES
  ('P9F', 'protein stability index', 2.76),
  ('N17D', 'protein stability index', 1.85),
  ('D13V', 'protein stability index', 1.65),
  ('W15Y', 'protein stability index', 4.38),
  ('K12G', 'protein stability index', 3.23),
  ('F1V', 'protein stability index', 4.86),
  ('T22D', 'protein stability index', 3.04),
  ('K12P', 'protein stability index', 3.1),
  ('S5Y', 'protein stability index', 2.45),
  ('M18D', 'protein stability index', 4.25),
  ('D13H', 'protein stability index', 2.02),
  ('L16P', 'protein stability index', 4.08),
  ('K12T', 'protein stability index', 3.15),
  ('D8R', 'protein stability index', 2.57),
  ('T11G', 'protein stability index', 3.04),
  ('A20E', 'protein stability index', 3.61),
  ('W15E', 'protein stability index', 4.68),
  ('E10N', 'protein stability index', 1.9),
  ('N17Q', 'protein stability index', 3.39),
  ('M18P', 'protein stability index', 3.53),
  ('S5M', 'protein stability index', 3.35),
  ('N17C', 'protein stability index', 2.41),
  ('M18N', 'protein stability index', 3.55),
  ('W15L', 'protein stability index', 4.59),
  ('A20W', 'protein stability index', 2.16),
  ('L16V', 'protein stability index', 2.22),
  ('E10C', 'protein stability index', 2.06),
  ('P4D', 'protein stability index', 3.49),
  ('N17T', 'protein stability index', 3.03),
  ('K12L', 'protein stability index', 2.62),
  ('E23T', 'protein stability index', 2.79),
  ('E10M', 'protein stability index', 1.94),
  ('F1K', 'protein stability index', 4.42),
  ('T22N', 'protein stability index', 2.93),
  ('K12Q', 'protein stability index', 3.43),
  ('A20N', 'protein stability index', 2.86),
  ('L21E', 'protein stability index', 3.9),
  ('A19G', 'protein stability index', 2.01),
  ('L16I', 'protein stability index', 2.32),
  ('A20L', 'protein stability index', 2.31),
  ('P4Y', 'protein stability index', 1.85),
  ('E10W', 'protein stability index', 1.83),
  ('L21I', 'protein stability index', 3),
  ('F14N', 'protein stability index', 4.76),
  ('L21K', 'protein stability index', 2.95),
  ('D3N', 'protein stability index', 2.02);

The reported measurements were obtained from the supplement of paper PMC10567573.
